Measured percent effect (mortality or growth inhibition) at 200 ppm by item
Test system: Diabrotica balteata (corn root worm)
protocol details: Activity against Diabrotica balteata, maize sprouts (Example B3)
Type: in vivo
setup conditions: 96 h, L2 larvae on maize sprouts, 4 days after infestation, read-out: effect in at least one of the two categories (mortality or growth inhibition)

                                   compound  value_reported
0  CCS(=O)(=O)c1cc(C(F)(F)F)ccc1-n1cc(-c2cncc(C(F)(F)F)c2)cn1 [Compound P1.17]           ≥ 80%
1  CCS(=O)(=O)c1cc(C(F)(F)F)cnc1-n1ncc(-c2cccc(C(F)(F)F)c2)c1C [Compound P1.2]           ≥ 80%
2  CCS(=O)(=O)c1cc(C(F)(F)F)cnc1-n1cc(-c2cncc(C(F)(F)F)c2)cn1 [Compound P1.18]           ≥ 80%
3  CCS(=O)(=O)c1cc(C(F)(F)F)ccc1-n1cc(-c2ccc(C(F)(F)F)nc2)cn1 [Compound P1.14]           ≥ 80%
4  CCS(=O)(=O)c1cc(C(F)(F)F)cnc1-n1cc(-c2cc(C(F)(F)F)ccn2)cn1 [Compound P1.8]           ≥ 80%
5  CCS(=O)(=O)c1cc(C(F)(F)F)cnc1-n1cc(-c2cccc(C(F)(F)F)c2)cn1 [Compound P1.6]           ≥ 80%
6  CCSc1cc(C(F)(F)F)cnc1-n1ncc(-c2cccc(C(F)(F)F)c2)c1C [Compound P1.1]           ≥ 80%
7  CCS(=O)(=O)c1cc(C(F)(F)F)cnc1-n1cc(-c2ccc(C(F)(F)F)nc2)cn1 [Compound P1.7]           ≥ 80%

Check Diabrotica balteata (corn root worm) data and give percent effect (mortality or growth inhibition) at 200 ppm for CCS(=O)(=O)c1cc(C(F)(F)F)ccc1-n1cc(-c2cccc(C(F)(F)F)c2)cn1 [Compound P1.9] .
≥ 80%

Check Diabrotica balteata (corn root worm) data and give percent effect (mortality or growth inhibition) at 200 ppm for CCS(=O)(=O)c1cc(C(F)(F)F)ccc1-n1ncc(-c2cccc(C(F)(F)F)c2)c1C [Compound P1.16] .
≥ 80%

Check Diabrotica balteata (corn root worm) data and give percent effect (mortality or growth inhibition) at 200 ppm for CCS(=O)(=O)c1cc(C(F)(F)F)ccc1-n1cc(-c2ccc(C(F)(F)F)cc2)cn1 [Compound P1.13] .
≥ 80%

Check Diabrotica balteata (corn root worm) data and give percent effect (mortality or growth inhibition) at 200 ppm for CCS(=O)(=O)c1cc(C(F)(F)F)ccc1-n1cc(-c2cc(C(F)(F)F)ccn2)cn1 [Compound P1.10] .
≥ 80%

Check Diabrotica balteata (corn root worm) data and give percent effect (mortality or growth inhibition) at 200 ppm for CCS(=O)(=O)c1cc(C(F)(F)F)ccc1-n1ncc(-c2ccc(C(F)(F)F)cc2)c1C [Compound P1.15] .
≥ 80%
